Tested on: Escherichia coli BL21 Δ7 cells
Assay protocol: cells
Format: cell-based
Recorded conditions: BL21, 5 h, read-out: IC50 (toxic to cell growth)
pIC50: −log10 of the molar value.
Reported metric: pIC50

Measured pIC50, COc1cccc2c1C(=O)c1c(O)c3c(c(O)c1C2=O)C[C@@](O)(C(=O)CO)C[C@@H]3O[C@H]1C[C@H](N)[C@H](O)[C@H](C)O1 [Doxorubicin, doxorubicin] : ~6.00
